Values compiled from the supplement of paper PMC6757056.

B1: library; a variant is named by its letters at N, in order (parent)
chain: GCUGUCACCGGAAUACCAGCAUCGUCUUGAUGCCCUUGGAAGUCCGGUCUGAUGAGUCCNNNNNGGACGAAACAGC

- Variants of: B1
- Protocol Summary: normalized RNA/DNA level without ligand (relative to sTRSVctl = 100) (log10 (% of sTRSVctl)); higher = less ribozyme self-cleavage, higher mRNA level
- Assay Setup: HEK293T, reporter: mCherry (pCS4076), ligand present: no
Exercise: for every item that follows, state its recorded normalized RNA/DNA level without ligand (log10).
The answer should be written as a number, with no unit following it.

Exercise: Give normalized RNA/DNA level without ligand (log10) for the following variant: UCCGA
Key: 1.95

Exercise: Please indicate normalized RNA/DNA level without ligand (log10) recorded for UCUUU
Key: 1.86

Exercise: Quickly give me recorded normalized RNA/DNA level without ligand (log10) for CAGAC
Key: 1.9

Exercise: Respond only with normalized RNA/DNA level without ligand (log10) recorded for ACGCA
Key: 1.77

Exercise: Using the record for UAAGU , state its measured normalized RNA/DNA level without ligand (log10).
Key: 1.86
